Origin of the recorded values: patent US12234211B2

EXPERIMENTAL_SYSTEM: IDH2-R140Q (Homo sapiens, UniProt P48735, R140Q)
Sequence (P48735 40-452 R140Q): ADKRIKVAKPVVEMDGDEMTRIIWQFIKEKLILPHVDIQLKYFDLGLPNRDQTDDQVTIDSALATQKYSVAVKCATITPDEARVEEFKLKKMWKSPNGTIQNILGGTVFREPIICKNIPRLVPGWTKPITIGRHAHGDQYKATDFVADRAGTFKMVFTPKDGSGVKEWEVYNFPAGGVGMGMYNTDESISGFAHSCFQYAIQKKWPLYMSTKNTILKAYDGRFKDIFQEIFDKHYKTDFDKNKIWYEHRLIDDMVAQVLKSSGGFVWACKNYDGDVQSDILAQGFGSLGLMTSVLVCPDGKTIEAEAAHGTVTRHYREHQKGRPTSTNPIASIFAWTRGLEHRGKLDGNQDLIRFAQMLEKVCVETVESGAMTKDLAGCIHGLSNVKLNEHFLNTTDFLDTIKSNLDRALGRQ
PROCEDURE_TEXT: Fluorescent determination of IDH2-R140Q cell activity (2-HG in U87MGR140Q cells)
CONDITION_CONTEXT: 72 hours incubation, read-out: IC50 (2-HG inhibition)
pIC50: −log10 of the molar value.
MEASURE: pIC50

Solved cases below.
molecule="CCCNc1nc(N[C@H](C)C(F)(F)F)nc(C2=C(F)C(O)C(F)(F)CC2)n1 (mixture of isomers) [Compound 248]" observed_measurement=7.03
molecule="[2H]C1(O)CCCC(c2nc(N[C@@H](C)C(F)(F)F)nc(NC([2H])(C([2H])([2H])[2H])C([2H])([2H])[2H])n2)=C1F (mixture of isomers)" observed_measurement=6.64
molecule=C[C@@H](Nc1nc(NCC2CC2)nc(C2=CCCCC2)n1)C(F)(F)F observed_measurement=6.50
molecule="C[C@@H](Nc1nc(NCC(F)(F)F)nc(C2=CC(O)CCC2)n1)C(F)(F)F (mixture of isomers)" observed_measurement=6.69

(I) CC[C@@H](C)Nc1nc(N[C@H](C)C(F)(F)F)nc(C2=C(F)C(O)CCC2)n1 (mixture of isomers)
(II) C[C@@H](Nc1nc(N[C@H]2CCOC2)nc(C2=CC(F)(F)CCC2)n1)C(F)(F)F
Query block: Sorting ascending by pIC50, which comes first: I or II ? Answer with the label corresponding to your selection.
Result block: II
(II: 5.60, I: 6.75)

(I) C[C@@H](Nc1nc(NC2CC2)nc(C2=C(F)C(O)CCC2)n1)C(F)(F)F (stereo partly drawn) [Compound 224]
(II) C[C@@H](Nc1nc(NC2CCC(F)(F)C2)nc(C2=CC(O)CCC2)n1)C(F)(F)F (mixture of isomers) [Compound 177]
Query block: Of I and II , which one carries the higher reported pIC50? Answer with the label corresponding to your selection.
Result block: II
(II: 7.34, I: 6.86)

(I) C[C@@H](Nc1nc(NC2CC2)nc(C2=CC(O)CCC2)n1)C(F)(F)F (mixture of isomers)
(II) CONc1nc(Nc2ccnc(C(F)(F)F)c2)nc(C2=C(F)C(O)C(F)(F)CC2)n1 (stereo not drawn)
Query block: Sorting ascending by pIC50, which comes first: I or II ? Answer with the label corresponding to your selection.
Result block: II
(II: 6.21, I: 6.77)

----------
EXPERIMENTAL_SYSTEM: IDH2-R140Q (Homo sapiens, UniProt P48735, R140Q)
PROCEDURE_TEXT: Fluorescent determination of IDH2-R140Q cell activity (2-HG in U87MGR140Q cells)
CONDITION_CONTEXT: 72 hours incubation, read-out: IC50 (2-HG inhibition)
MEASURE: IC50 (nM)

(a) C[C@@H](Nc1nc(NC2CC(F)(F)C2)nc(C2=C(F)C(O)CCCC2)n1)C(F)(F)F (stereo partly shown)
(b) CC1CC1Nc1nc(NC2CC(F)(F)C2)nc(C2=C(F)C(O)CCC2)n1 (stereo not shown)
(c) C[C@@H](Nc1nc(N[C@@H]2C[C@@H]2F)nc(C2=C(F)C(O)CCC2)n1)C(F)(F)F (mixture of isomers)
Query block: From the records above, write out the order of decreasing IC50. Write the labels out in the order the request specifies.
Result block: c, a, b
(c: 326 nM, a: 106 nM, b: 72 nM)

(I) OC1C=C(c2nc(NC3CC(F)(F)C3)nc(NC3CC(F)(F)C3)n2)CCC1 (stereo not shown)
(II) C[C@@H](Nc1nc(N[C@H](C)C(F)(F)F)nc(C2=C(F)C(O)C(F)CC2)n1)C(F)(F)F (single isomer, unassigned) [Compound 98]
Query block: Of I and II , which one carries the higher reported IC50? Answer with the label corresponding to your selection.
Result block: II

(a) C[C@H](CF)Nc1nc(NC2CC(F)(F)C2)nc(C2=C(F)C(O)CCC2)n1 (stereo partly shown)
(b) C[C@@H](Nc1nc(NCC(F)(F)F)nc(C2=C(F)C(O)CCC2)n1)C(F)(F)F (stereo partly shown)
Query block: Of a and b , which one carries the higher reported IC50? Answer with the label corresponding to your selection.
Result block: a
(a: 328 nM, b: 106 nM)

----------
EXPERIMENTAL_SYSTEM: IDH1-R132H (Homo sapiens, UniProt O75874, R132H)
Sequence (O75874 whole entry R132H): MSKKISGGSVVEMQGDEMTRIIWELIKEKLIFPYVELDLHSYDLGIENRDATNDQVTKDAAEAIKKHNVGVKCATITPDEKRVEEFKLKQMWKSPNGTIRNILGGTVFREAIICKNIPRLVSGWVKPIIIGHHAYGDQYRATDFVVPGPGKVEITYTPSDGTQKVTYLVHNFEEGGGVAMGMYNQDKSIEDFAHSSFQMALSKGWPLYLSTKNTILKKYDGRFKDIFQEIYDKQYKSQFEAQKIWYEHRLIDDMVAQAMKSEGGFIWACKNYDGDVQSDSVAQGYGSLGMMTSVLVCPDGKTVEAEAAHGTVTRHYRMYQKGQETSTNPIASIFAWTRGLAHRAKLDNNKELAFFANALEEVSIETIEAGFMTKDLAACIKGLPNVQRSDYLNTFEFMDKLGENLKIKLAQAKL
PROCEDURE_TEXT: Fluorescent determination of IDH1-R132H cell activity (2-HG in U87MGR132H cells)
CONDITION_CONTEXT: 2-HG inhibition in U87MGR132H cells transfected with IDH1-R132H mutant plasmid
MEASURE: IC50 (µM)

Solved cases below.
compound="CC(Nc1nc(N[C@H](C)C(F)(F)F)nc(C2=C(F)C(O)CCC2)n1)C(F)F (mixture of isomers) [Compound 174]" observed_measurement=0.343
compound="C[C@@H](Nc1nc(N[C@H](C)C(F)(F)F)nc(C2=C(F)C(O)CCC2)n1)C(F)(F)F (mixture of isomers) [Compound 2]" observed_measurement=0.365
compound="[2H]C1([2H])CCC(c2nc(N[C@@H](C)C(F)(F)F)nc(N[C@@H](C)C(F)(F)F)n2)=C(F)C1O (stereo partly shown) [Compound 87]" observed_measurement=0.781
compound="[2H]C1(O)C(F)=C(c2nc(NC(C)C)nc(NC3CC(F)(F)C3)n2)CCC1(F)F (stereo not shown) [Compound 274]" observed_measurement=3.28
compound="C[C@H](CF)Nc1nc(N[C@H](C)C(F)(F)F)nc(C2=C(F)C(O)CCC2)n1 (mixture of isomers) [Compound 169]" observed_measurement=9.46

(a) C[C@@H](Nc1nc(N[C@H](C)C(F)(F)F)nc(C2=C(F)C(O)C(F)CC2)n1)C(F)(F)F (stereo partly shown) [Compound 266]
(b) C[C@H](Nc1nc(N[C@H](C)C(F)(F)F)nc(C2=C(F)C(O)CCC2)n1)C1CC1 (mixture of isomers) [Compound 8]
Query block: Sorting ascending by IC50, which comes first: a or b ? Answer with the label corresponding to your selection.
Result block: a

----------
EXPERIMENTAL_SYSTEM: IDH2-R140Q (Homo sapiens, UniProt P48735, R140Q)
Sequence (P48735 40-452 R140Q): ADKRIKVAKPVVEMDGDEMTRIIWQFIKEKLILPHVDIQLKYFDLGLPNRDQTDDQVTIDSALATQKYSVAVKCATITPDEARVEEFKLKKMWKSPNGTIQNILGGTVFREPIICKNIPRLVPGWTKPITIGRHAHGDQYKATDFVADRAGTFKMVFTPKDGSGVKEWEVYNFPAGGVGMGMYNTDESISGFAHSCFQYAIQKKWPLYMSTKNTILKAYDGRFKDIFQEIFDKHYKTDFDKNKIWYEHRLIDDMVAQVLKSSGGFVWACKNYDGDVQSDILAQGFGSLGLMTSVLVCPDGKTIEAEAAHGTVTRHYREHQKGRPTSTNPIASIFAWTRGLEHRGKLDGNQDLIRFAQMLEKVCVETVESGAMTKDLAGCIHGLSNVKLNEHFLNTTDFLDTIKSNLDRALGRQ
PROCEDURE_TEXT: Fluorescent determination of IDH2-R140Q cell activity (2-HG in U87MGR140Q cells)
CONDITION_CONTEXT: 72 hours incubation, read-out: IC50 (2-HG inhibition)
pIC50: −log10 of the molar value.
MEASURE: pIC50

Solved cases below.
molecule="C[C@@H](Nc1nc(NC2CCCC2(F)F)nc(C2=C(F)C(O)CCC2)n1)C(F)(F)F (mixture of isomers) [Compound 166]" experimental_system="IDH2-R140Q (Homo sapiens, UniProt P48735, R140Q)" measure=pIC50 observed_measurement=6.74
molecule="CC(C)(C)ONc1nc(Nc2cc(Cl)ccn2)nc(C2=C(F)C(O)CCC2)n1 (stereo not drawn) [Compound 61]" experimental_system="IDH2-R140Q (Homo sapiens, UniProt P48735, R140Q)" measure=pIC50 observed_measurement=6.77
molecule="CC(C)(C)ONc1nc(Nc2ccnc(C(F)(F)F)c2)nc(C2=C(F)C(O)C(F)(F)CC2)n1 (stereo not drawn) [Compound 275]" experimental_system="IDH2-R140Q (Homo sapiens, UniProt P48735, R140Q)" measure=pIC50 observed_measurement=7.21
molecule="CC(C)(C)ONc1nc(Nc2ccnc(F)c2)nc(C2=C(F)C(O)C(F)(F)CC2)n1 (stereo not drawn) [Compound 215]" experimental_system="IDH2-R140Q (Homo sapiens, UniProt P48735, R140Q)" measure=pIC50 observed_measurement=7.10
molecule="OC1CCCCC(c2nc(NC3CC(F)(F)C3)nc(NC3CC(F)(F)C3)n2)=C1F (stereo not drawn) [Compound 39]" experimental_system="IDH2-R140Q (Homo sapiens, UniProt P48735, R140Q)" measure=pIC50 observed_measurement=6.79

(A) CC(C)Nc1nc(Nc2ccc3sncc3c2)nc(C2=C(F)C(O)CCC2)n1 (stereo not drawn) [Compound 65]
(B) C[C@@H](Nc1nc(N[C@H](C)C(F)(F)F)nc(C2=CCCCC2)n1)C(F)(F)F [Compound 186]
(C) CC(Nc1nc(NC2CC(F)(F)C2)nc(C2=C(F)C(O)CCC2)n1)C(F)(F)F (racemic) [Compound 4]
(D) CC(C)Nc1nc(N[C@H](C)C(F)(F)F)nc(C2=C(Cl)C(O)CCC2)n1 (mixture of isomers) [Compound 17]
Query block: Arrange items by their pIC50 values in increasing order. Write the labels out in the order the request specifies.
Result block: D, B, A, C

(P) CC(C)Nc1nc(Nc2ccn3nccc3c2)nc(C2=C(F)C(O)CCC2)n1 (stereo not drawn) [Compound 59]
(Q) C[C@@H](Nc1nc(NC2CCCC2)nc(C2=CC(O)CCC2)n1)C(F)(F)F (mixture of isomers) [Compound 130]
Query block: Sorting ascending by pIC50, which comes first: P or Q ? Answer with the label corresponding to your selection.
Result block: P
(P: 6.66, Q: 7.17)

(1) C[C@@H](Nc1nc(N[C@H](C)C(F)(F)F)nc(C2=C(F)C(O)CCC2)n1)C(F)(F)F (stereo partly drawn) [Compound 83]
(2) OC1C(F)=C(c2nc(NC3CC(F)(F)C3)nc(NC3CC(F)(F)C3)n2)CCC1F (single isomer, unassigned) [Compound 201]
Query block: Sorting ascending by pIC50, which comes first: 1 or 2 ? Answer with the label corresponding to your selection.
Result block: 1

(A) C[C@@H](Nc1nc(N[C@@H]2CCC(F)(F)C2)nc(C2=C(F)C(O)C(F)(F)CC2)n1)C(F)(F)F (mixture of isomers) [Compound 235]
(B) CC(Nc1nc(N[C@H](C)C(F)(F)F)nc(C2=C(F)C(O)CCC2)n1)C(C)(F)F (mixture of isomers) [Compound 175]
Query block: Of A and B , which one carries the higher reported pIC50? Answer with the label corresponding to your selection.
Result block: A
